Assay: In-vivo pharmacokinetic evaluation, single dose
Parameters: species or system New Zealand White rabbits
Conditions: New Zealand White, whole blood, 1 mg; heading: Average Tac conc.; rabbit blood, 4.0 (240 mins) after single 1 mg dose (oral or buccal patch)
Experimental: The study was performed in New Zealand White rabbits as per the CPCSEA guidance. Overnight fasted animals were anaesthetised with Ketamine (30-40 mg/kg) and Xylazine (10 mg/kg) and 1 mg BAPTac patch was administered on the buccal surface of the oral cavity. The control group was administered 1 mg tacrolimus in PBS and 30% Ethanol. […] Blood samples were collected in EDTA tubes, aliquoted and stored in amber-coloured tubes at −80° C. until quantification by LC-MS/MS.
Recorded endpoint: concentration at 4 h (ng/mL)
Output spec: scalar in ng/mL, unitless text.

Record summary for C=CC[C@@H]1/C=C(\C)C[C@H](C)C[C@H](OC)[C@H]2O[C@@](O)(C(=O)C(=O)N3CCCC[C@H]3C(=O)O[C@H](/C(C)=C/[C@@H]3CC[C@@H](O)[C@H](OC)C3)[C@H](C)[C@@H](O)CC1=O)[C@H](C)C[C@@H]2OC (relative stereo) [Tacrolimus, monohydrate] : reported concentration at 4 h = 14.5
